The values you see were collected from paper PMC11451940.

Test system: MRC-5 cells (human foetal fibroblasts)
Assay: MTT in vitro cytotoxicity, normal MRC-5
Assay type: cell-based
Conditions: Homo sapiens, MRC5, 24 h, read-out: IC50 ± SD, MRC-5
pIC50: −log10 of the molar value.
OBSERVABLE: pIC50

## Input GET /values?readout=pIC50&item= CC(C)=CCC1=C(O)C(=O)c2ccccc2C1=O [Lapachol]
## Output < 4.30

====

Test system: PC-3 cells (prostate adenocarcinoma)
Assay: MTT in vitro cytotoxicity, PC-3
Format: cell-based, human
Conditions: read-out: IC50 ± SD, PC-3; 24 h of incubation, MTT
OBSERVABLE: IC50

## Input For N.N.[Cl][Pt][Cl] [Cisplatin] , what is its reported IC50?
## Output > 50 µM

====

Test system: MCF-7 cells (breast adenocarcinoma)
Experiment: MTT in vitro cytotoxicity, MCF-7
Type: cell-based, human
Conditions: Homo sapiens, MCF7, 24 h, read-out: IC50 ± SD, MCF-7
pIC50: −log10 of the molar value.
OBSERVABLE: pIC50

## Input Item: CC(C)=CCC1=C(O)C(=O)c2ccccc2C1=O Test system: MCF-7 cells (breast adenocarcinoma) Read-out: pIC50 Value: ?
## Output < 4.30
